- Test system: primary human total T-cells
- protocol_text: T-cell activation, CD25 surface staining, Biological Example 2
- Assay type: cell-based
- conditions: anti-CD3 and anti-CD28 co-stimulation, 48 hours, 0.3 μM inhibitor, fold change over baseline
value_kind: fold induction at 0.3 µM

As a guide, the following entries are already answered.
compound	study_system	fold induction at 0.3 µM
Cn1cnnc1C[C@]1(c2cccc(N3Cc4c(cc(CN5CCCOCC5)cc4C(F)(F)F)C3=O)c2)C[C@H](C#N)C1 [Compound 29]	primary human total T-cells	1.24 to 1.39
CN(Cc1cc2c(c(C(F)(F)F)c1)CN(c1cccc([C@]3(Cc4nncn4C)C[C@@H](C#N)C3)c1)C2=O)C1CCC(F)(F)C1 (stereo partly shown) [Compound 32]	primary human total T-cells	> 1.39
Cn1cnnc1C[C@]1(c2cccc(N3Cc4c(cc(CNC5CCC(C)(C)C5)cc4C(F)(F)F)C3=O)c2)C[C@H](C#N)C1 (stereo partly shown) [Compound 31]	primary human total T-cells	> 1.39

Please supply fold induction at 0.3 µM for each of the following items, keeping them in order.
1. Cn1cnnc1C[C@]1(c2cccc(N3Cc4c(cc(CN5CCCCC(F)(F)C5)cc4C(F)(F)F)C3=O)c2)C[C@H](C#N)C1 [Compound 50]
2. C[C@H]1CCCN(Cc2cc3c(c(C(F)(F)F)c2)CN(c2cccc([C@]4(Cc5nncn5C)C[C@@H](C#N)C4)c2)C3=O)C1 [Compound 19]
3. CC1CN(Cc2cc3c(c(C(F)(F)F)c2)CN(c2cccc([C@]4(Cc5nncn5C)C[C@@H](C#N)C4)c2)C3=O)CCCO1 (stereo partly shown) [Compound 33]
4. C[C@@H]1CN(Cc2cc3c(c(C(F)(F)F)c2)CN(c2cccc([C@]4(Cc5nncn5C)C[C@@H](C#N)C4)c2)C3=O)CCO1 [Compound 6]
5. Cn1cnnc1C[C@]1(c2cccc(N3Cc4c(cc(CN5CCC6C(C5)C6(F)F)cc4C(F)(F)F)C3=O)c2)C[C@H](C#N)C1 (stereo partly shown) [Compound 27]
6. C[C@@H]1CN(Cc2cc3c(c(C(F)(F)F)c2)CN(c2cccc([C@]4(Cc5nncn5C)C[C@@](C)(C#N)C4)c2)C3=O)CCO1 [Compound 7]
7. Cn1cnnc1C[C@]1(c2cccc(N3Cc4c(cc(CNC5CC6C(C5)C6(F)F)cc4C(F)(F)F)C3=O)c2)C[C@H](C#N)C1 (stereo partly shown) [Compound 12]

Response:
1: > 1.39; 2: > 1.39; 3: ≤ 1.24; 4: ≤ 1.24; 5: ≤ 1.24; 6: ≤ 1.24; 7: 1.24 to 1.39

Report fold induction at 0.3 µM for every entry below.
1. Cn1cnnc1C[C@]1(c2cccc(N3Cc4c(cc(CN5CCc6ncccc6C5)cc4C(F)(F)F)C3=O)c2)C[C@H](C#N)C1 [Compound 28]
2. C[C@@H]1C[C@H](C)CN(Cc2cc3c(c(C(F)(F)F)c2)CN(c2cccc([C@]4(Cc5nncn5C)C[C@@H](C#N)C4)c2)C3=O)C1 [Compound 18]
3. Cn1cnnc1C[C@]1(c2cccc(N3Cc4c(cc(CNC5CC6(C5)CC6(F)F)cc4C(F)(F)F)C3=O)c2)C[C@H](C#N)C1 (stereo partly shown) [Compound 23]

Response:
≤ 1.24
1.24 to 1.39
1.24 to 1.39

* * *

- Test system: primary human total T-cells
- protocol_text: T-cell activation, CD25 surface staining, Biological Example 2
- Assay type: cell-based
- conditions: anti-CD3 and anti-CD28 co-stimulation, 48 hours, 0.3 μM inhibitor, fold change over baseline
value_kind: fold induction at 0.3 µM

Please review the following examples before continuing.
molecule	fold induction at 0.3 µM
Cn1cnnc1C[C@]1(c2cccc(N3Cc4c(cc(CN5CCC[C@H](C(F)(F)F)C5)cc4C(F)(F)F)C3=O)c2)C[C@H](C#N)C1	≤ 1.24
CN(Cc1cc2c(c(C(F)(F)F)c1)CN(c1cccc([C@]3(Cc4nncn4C)C[C@@H](C#N)C3)c1)C2=O)C1CC(F)(F)C1	> 1.39

The measured fold induction at 0.3 µM associated with Cn1cnnc1C[C@]1(c2cccc(N3Cc4c(cc(CNC5CCC(F)(F)C5)nc4C4CC4)C3=O)c2)C[C@H](C#N)C1 (stereo partly drawn) reads 1.24 to 1.39

These measurements were taken from patent US11530229B2.
